These entries and their values trace back to patent US12371428B2.

Provide the recorded pIC50 for the entries that follow.
- assayed-system: KDR (phospho-KDR, VEGF165-stimulated HUVEC cells) (Homo sapiens (Human), UniProt P35968)
- Sequence (P35968 20-1356): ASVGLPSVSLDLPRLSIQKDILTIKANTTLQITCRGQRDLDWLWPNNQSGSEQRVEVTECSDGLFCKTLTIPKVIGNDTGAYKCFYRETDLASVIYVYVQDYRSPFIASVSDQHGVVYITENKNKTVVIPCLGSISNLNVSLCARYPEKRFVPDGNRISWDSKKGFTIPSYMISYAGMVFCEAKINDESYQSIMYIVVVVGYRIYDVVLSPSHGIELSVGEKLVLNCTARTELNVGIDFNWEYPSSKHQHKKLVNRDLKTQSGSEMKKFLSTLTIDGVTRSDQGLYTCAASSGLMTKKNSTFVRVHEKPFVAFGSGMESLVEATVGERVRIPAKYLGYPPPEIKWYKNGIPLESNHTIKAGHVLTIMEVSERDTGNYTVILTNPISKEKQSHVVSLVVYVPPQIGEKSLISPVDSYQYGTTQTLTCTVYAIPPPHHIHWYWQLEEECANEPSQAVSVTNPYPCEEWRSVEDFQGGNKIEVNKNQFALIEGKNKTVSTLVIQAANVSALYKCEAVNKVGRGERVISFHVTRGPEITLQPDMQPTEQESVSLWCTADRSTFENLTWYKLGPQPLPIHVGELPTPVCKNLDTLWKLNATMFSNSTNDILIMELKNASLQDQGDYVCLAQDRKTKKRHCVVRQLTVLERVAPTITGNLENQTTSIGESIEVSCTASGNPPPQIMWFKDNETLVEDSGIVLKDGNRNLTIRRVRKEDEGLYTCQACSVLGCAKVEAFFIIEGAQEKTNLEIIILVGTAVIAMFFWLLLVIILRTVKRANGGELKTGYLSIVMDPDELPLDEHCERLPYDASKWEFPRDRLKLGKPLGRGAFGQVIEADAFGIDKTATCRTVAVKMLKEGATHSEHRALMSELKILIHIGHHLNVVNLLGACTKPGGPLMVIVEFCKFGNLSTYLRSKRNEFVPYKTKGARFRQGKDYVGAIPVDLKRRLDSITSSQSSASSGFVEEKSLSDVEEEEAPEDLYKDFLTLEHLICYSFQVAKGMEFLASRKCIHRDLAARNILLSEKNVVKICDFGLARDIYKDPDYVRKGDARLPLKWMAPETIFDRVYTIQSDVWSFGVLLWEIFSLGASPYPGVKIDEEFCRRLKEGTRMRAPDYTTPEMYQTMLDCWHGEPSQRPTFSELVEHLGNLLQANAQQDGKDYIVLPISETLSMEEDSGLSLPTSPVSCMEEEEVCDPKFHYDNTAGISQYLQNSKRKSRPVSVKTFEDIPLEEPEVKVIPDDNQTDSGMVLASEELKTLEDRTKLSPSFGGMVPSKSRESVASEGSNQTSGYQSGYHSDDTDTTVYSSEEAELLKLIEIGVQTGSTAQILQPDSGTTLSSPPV
- method-notes: KDR autophosphorylation ELISA in HUVEC cells (Example G)
- Assay type: cell-based
- assay-context: cellular activity; KDR autophosphorylation ELISA in HUVEC cells
pIC50: −log10 of the molar value.

# input Fill in the blank: the reported pIC50 of `COc1cnc2c(Oc3ccc(NC(=O)c4c(C)c(C)nn(-c5ccc(F)cc5)c4=O)cc3)ccnc2c1` is ____.
# output < 6.52

# input Next record, please: `COc1cc2nccc(Oc3ccc(NC(=O)c4c(C)ncn(-c5ccc(F)cc5)c4=O)cc3F)c2nc1OC`
# output > 7.00

# input Next record, please: `COc1cc2nccc(Oc3ccc(NC(=O)c4cn(C5CCCC5)cc(-c5ccc(F)cc5)c4=O)cc3F)c2nc1OC`
# output 6.52 to 7.00

# input Next record, please: `COc1cc2nccc(Oc3ccc(NC(=O)c4cnc(N)n(-c5ccc(F)cc5)c4=O)cc3F)c2nc1OC`
# output > 7.00

====

- assayed-system: KDR (phospho-KDR, VEGF165-stimulated HUVEC cells) (Homo sapiens (Human), UniProt P35968)
- method-notes: KDR autophosphorylation ELISA in HUVEC cells (Example G)
- Type: cell-based
- assay-context: cellular activity; KDR autophosphorylation ELISA in HUVEC cells
Provide the recorded IC50 for the entries that follow.

# input Fill in the blank: the reported IC50 of `COc1cc2nccc(Oc3ccc(NC(=O)c4cnc(C(C)(C)C)c(-c5ccc(F)cc5)c4O)cc3F)c2nc1OC` is ____.
# output > 300 nM

# input Next record, please: `COc1cnc2c(Oc3ccc(NC(=O)c4cnc(CO)c(-c5ccc(F)cc5)c4O)cc3F)ccnc2c1`
# output < 100 nM

# input Next record, please: `COc1cc2nccc(Oc3ccc(NC(=O)c4c(C)nc(C)c(-c5ccc(F)cc5C)c4O)cc3)c2nc1Cl`
# output < 100 nM

# input Next record, please: `COc1cc2nccc(Oc3ccc(NC(=O)c4c(C)nc(C)c(-c5ccc(F)cc5)c4O)cc3F)c2nc1OC`
# output < 100 nM

# input Next record, please: `COc1ccc2nccc(Oc3ccc(NC(=O)c4c(C)ncc(-c5ccc(F)cc5C)c4O)cc3F)c2n1`
# output < 100 nM

# input Next record, please: `COc1ccc2nccc(Oc3ccc(NC(=O)c4ncc(C)n(-c5ccc(F)cc5)c4=O)cc3)c2n1`
# output > 300 nM

# input Next record, please: `COc1cc2nccc(Oc3ccc(NC(=O)c4c(C)c(F)c(C)n(-c5ccc(F)cc5)c4=O)cc3)c2nc1OC`
# output < 100 nM

# input Next record, please: `COc1cc2nccc(Oc3ccc(NC(=O)c4cn(C(C)(C)C)cc(-c5ccc(F)cc5)c4=O)cc3F)c2nc1OC`
# output > 300 nM

# input Next record, please: `Cc1cc(F)ccc1-c1c(C)n(C)cc(C(=O)Nc2ccc(Oc3ccnc4cc(C)c(F)nc34)c(F)c2)c1=O`
# output > 300 nM

# input Next record, please: `CCc1nc(C)c(-c2ccc(F)cc2C)c(O)c1C(=O)Nc1ccc(Oc2ccnc3cc(OC)c(OC)nc23)c(F)c1`
# output < 100 nM

# input Next record, please: `COc1cnc2c(Oc3ccc(NC(=O)c4cn(CCO)c(C)c(-c5ccc(F)cc5)c4=O)cc3F)ccnc2c1`
# output 100 to 300 nM

# input Next record, please: `COc1cnc2c(Oc3ccc(NC(=O)c4cnc(C)c(-c5c(C)cc(F)cc5C)c4O)cc3F)ccnc2c1`
# output 100 to 300 nM

# input Next record, please: `COc1cc2nccc(Oc3ccc(NC(=O)c4cn(CC(F)(F)F)c(C)c(-c5ccc(F)cc5)c4=O)cc3F)c2nc1OC`
# output 100 to 300 nM

# input Next record, please: `COc1nc2c(Oc3ccc(NC(=O)c4n[nH]c(C)c(-c5ccc(F)cc5)c4=O)cc3F)ccnc2cc1C`
# output < 100 nM
